# experimental_target: Raw264.7 p110 γ (Mus musculus)
# Construct: reduction of phospho-AKT in stimulated RAW 264.7 cells; endogenous in cells
# assay_summary: Raw264.7 p110 γ cellular assay (phospho-AKT)
# settings: serum-starved RAW264.7 cells stimulated with C5a
pIC50: −log10 of the molar value.
reported_endpoint: pIC50

[[record]]
compound_smiles = "C[C@H](NC(=O)c1c(N)nn2cccnc12)c1cc2scc(Cl)c2c(=O)n1-c1ccccc1"
result_value = "> 7.00"

[[record]]
compound_smiles = "C[C@H](NC(=O)c1nc(-c2cccc(S(=O)(=O)NC3CC3)c2)cnc1N)c1cc2cccc(Cl)c2c(=O)n1C"
result_value = "> 7.00"

[[record]]
compound_smiles = "Cc1cccc2cc([C@H](C)NC(=O)c3c(N)nn4cccnc34)n(-c3ccccc3)c(=O)c12"
result_value = "> 7.00"

[[record]]
compound_smiles = "COc1cc(-c2cccc3cc([C@H](C)NC(=O)c4c(N)nn5cccnc45)n(C4CC4)c(=O)c23)ccn1"
result_value = "> 7.00"

[[record]]
compound_smiles = "C[C@H](NC(=O)c1nc(-c2cccc(S(=O)(=O)NC(C)(C)C)c2)cnc1N)c1cc2cccc(Cl)c2c(=O)n1-c1ccccc1"
result_value = "> 7.00"

[[record]]
compound_smiles = "COc1cc(-c2cccc3cc([C@H](C)NC(=O)c4c(N)nn5cccnc45)n(-c4cccc(F)c4)c(=O)c23)ccn1"
result_value = "> 7.00"

[[record]]
compound_smiles = "C[C@H](NC(=O)c1c(N)nn2cccnc12)c1cc2cccc(Cl)c2c(=O)n1CCN(C)S(C)(=O)=O"
result_value = "> 7.00"

[[record]]
compound_smiles = "COc1cc(-c2cccc3cc([C@H](C)NC(=O)c4ncc(C)nc4N)n(-c4ccccc4)c(=O)c23)ccn1"
result_value = "> 7.00"


pIC50 in this record for C[C@H](NC(=O)c1c(N)ncc2cccnc12)c1cc2cccc(N3CCOCC3)c2c(=O)n1-c1ccccc1 : > 7.00

pIC50 in this record for C[C@H](NC(=O)c1c(N)nn2cccnc12)c1cc2ccsc2c(=O)n1-c1ccccc1 : 6.00 to 7.00

pIC50 in this record for COc1cc(-c2cccc3nc([C@H](C)NC(=O)c4c(N)nn5cccnc45)n(-c4ccccc4)c(=O)c23)ccn1 : > 7.00

pIC50 in this record for C[C@H](NC(=O)c1cncc2cccnc12)c1cc2cccc(Cl)c2c(=O)n1-c1ccccc1 : > 7.00

pIC50 in this record for CC(C)c1ccn2nc(N)c(C(=O)N[C@@H](C)c3cc4cccc(Cl)c4c(=O)n3-c3ccccc3)c2n1 : > 7.00

pIC50 in this record for C[C@H](NC(=O)c1c(N)nn2cccnc12)c1cc2cccc(F)c2c(=O)n1-c1ccccc1 : > 7.00

pIC50 in this record for C[C@H](NC(=O)c1c(N)nn2cccnc12)c1cc2cccc(C#CCNC(=O)[C@H]3CCC(=O)O3)c2c(=O)n1-c1ccccc1 : > 7.00

pIC50 in this record for C[C@H](NC(=O)c1cnn2cccnc12)c1cc2cccc(Cl)c2c(=O)n1-c1ccccc1 : 6.00 to 7.00

* * *

Collected pIC50 values appear next to each entry.
# experimental_target: RAJI p110 δ (Homo sapiens)
# Sequence (O00329 whole entry): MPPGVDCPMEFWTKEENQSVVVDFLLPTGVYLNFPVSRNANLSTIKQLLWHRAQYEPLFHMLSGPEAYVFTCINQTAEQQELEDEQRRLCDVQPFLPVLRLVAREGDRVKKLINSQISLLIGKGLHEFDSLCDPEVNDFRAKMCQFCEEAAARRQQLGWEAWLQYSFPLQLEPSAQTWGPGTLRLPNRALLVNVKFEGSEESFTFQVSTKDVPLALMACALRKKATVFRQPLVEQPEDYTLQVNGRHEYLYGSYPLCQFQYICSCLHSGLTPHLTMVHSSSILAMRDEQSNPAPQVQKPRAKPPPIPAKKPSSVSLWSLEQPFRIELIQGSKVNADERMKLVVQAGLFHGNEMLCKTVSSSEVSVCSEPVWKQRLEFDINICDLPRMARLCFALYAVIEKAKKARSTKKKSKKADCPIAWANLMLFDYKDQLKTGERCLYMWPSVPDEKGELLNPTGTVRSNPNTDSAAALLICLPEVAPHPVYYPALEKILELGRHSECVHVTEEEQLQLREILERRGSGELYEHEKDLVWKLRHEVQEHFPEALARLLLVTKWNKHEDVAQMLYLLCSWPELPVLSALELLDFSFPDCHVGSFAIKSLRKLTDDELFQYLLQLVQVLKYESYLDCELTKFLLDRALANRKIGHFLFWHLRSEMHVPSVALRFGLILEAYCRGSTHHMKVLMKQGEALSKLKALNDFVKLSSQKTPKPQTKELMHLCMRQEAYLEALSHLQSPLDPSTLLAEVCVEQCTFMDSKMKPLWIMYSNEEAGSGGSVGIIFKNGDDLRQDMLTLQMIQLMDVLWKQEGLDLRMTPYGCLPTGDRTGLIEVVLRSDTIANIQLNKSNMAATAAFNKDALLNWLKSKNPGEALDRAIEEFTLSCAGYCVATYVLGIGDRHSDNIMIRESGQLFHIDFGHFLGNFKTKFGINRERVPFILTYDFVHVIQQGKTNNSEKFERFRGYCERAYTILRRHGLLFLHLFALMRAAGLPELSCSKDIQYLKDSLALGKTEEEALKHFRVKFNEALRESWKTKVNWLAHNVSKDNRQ
# Sequence (P27986 whole entry partner): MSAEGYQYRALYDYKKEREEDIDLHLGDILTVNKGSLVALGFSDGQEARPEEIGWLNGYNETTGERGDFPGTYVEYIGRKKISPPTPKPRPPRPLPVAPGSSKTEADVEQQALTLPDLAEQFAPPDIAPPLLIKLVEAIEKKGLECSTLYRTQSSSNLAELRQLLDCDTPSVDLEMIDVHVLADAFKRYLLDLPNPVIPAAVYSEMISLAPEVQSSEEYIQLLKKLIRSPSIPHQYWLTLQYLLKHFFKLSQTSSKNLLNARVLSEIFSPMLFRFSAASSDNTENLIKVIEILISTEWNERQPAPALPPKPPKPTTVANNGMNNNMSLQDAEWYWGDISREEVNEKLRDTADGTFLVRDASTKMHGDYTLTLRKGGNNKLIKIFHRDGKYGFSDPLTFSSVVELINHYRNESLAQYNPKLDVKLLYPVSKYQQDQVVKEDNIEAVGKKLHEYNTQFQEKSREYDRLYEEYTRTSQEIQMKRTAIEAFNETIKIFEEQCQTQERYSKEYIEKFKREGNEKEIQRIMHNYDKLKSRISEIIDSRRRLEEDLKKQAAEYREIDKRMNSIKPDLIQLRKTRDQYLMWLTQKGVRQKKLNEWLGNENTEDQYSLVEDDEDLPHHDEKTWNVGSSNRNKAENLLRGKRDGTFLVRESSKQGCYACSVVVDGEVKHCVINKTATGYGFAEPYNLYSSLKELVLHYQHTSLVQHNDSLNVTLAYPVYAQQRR
# assay_summary: RAJI p110 δ cellular assay (phospho-AKT);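 further: potency based on lowered phosphorylated AKT in RAJI cells, as a readout of PI3K-δ dependent B-cell receptor signaling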
pIC50: −log10 of the molar value.

Recorded pIC50, per entry:
[[record]]
compound_smiles = "COc1cc(-c2cccc3cc([C@H](C)NC(=O)c4c(N)nn5ccc(C)nc45)n(-c4ccccc4)c(=O)c23)ccn1"
reported_endpoint = "pIC50"
result_value = "> 7.00"

[[record]]
compound_smiles = "CC(=O)Nc1cccc(-c2cccc3cc([C@H](C)NC(=O)c4c(N)nn5cccnc45)n(-c4ccccc4)c(=O)c23)c1"
reported_endpoint = "pIC50"
result_value = "> 7.00"


pIC50 in this record for CC(C)Oc1ccc(-c2cnc(N)c(C(=O)N[C@@H](C)c3cc4cccc(Cl)c4c(=O)n3-c3ccccc3)n2)cc1 : < 5.00

pIC50 in this record for C[C@H](NC(=O)c1c(N)nn2cccnc12)c1cc2scc(-c3cnn(C)c3)c2c(=O)n1-c1ccccc1 : 5.00 to 6.00

pIC50 in this record for C[C@H](NC(=O)c1c(N)nn2cccnc12)c1cc2cccc(-c3ccccc3)c2c(=O)n1-c1ccccc1 : 6.00 to 7.00

pIC50 in this record for C[C@H](NC(=O)c1c(N)nn2cccnc12)c1cc2cccc(Cl)c2c(=O)n1C1CC1 : > 7.00

pIC50 in this record for C[C@H](NC(=O)c1nc(-c2ccccc2)cnc1N)c1cc2cccc(Cl)c2c(=O)n1-c1ccccc1 : 6.00 to 7.00

* * *

# experimental_target: Raw264.7 p110 γ (Mus musculus, UniProt Q9JHG7)
# Construct: reduction of phospho-AKT in stimulated RAW 264.7 cells; endogenous in cells
# Sequence (Q9JHG7 whole entry): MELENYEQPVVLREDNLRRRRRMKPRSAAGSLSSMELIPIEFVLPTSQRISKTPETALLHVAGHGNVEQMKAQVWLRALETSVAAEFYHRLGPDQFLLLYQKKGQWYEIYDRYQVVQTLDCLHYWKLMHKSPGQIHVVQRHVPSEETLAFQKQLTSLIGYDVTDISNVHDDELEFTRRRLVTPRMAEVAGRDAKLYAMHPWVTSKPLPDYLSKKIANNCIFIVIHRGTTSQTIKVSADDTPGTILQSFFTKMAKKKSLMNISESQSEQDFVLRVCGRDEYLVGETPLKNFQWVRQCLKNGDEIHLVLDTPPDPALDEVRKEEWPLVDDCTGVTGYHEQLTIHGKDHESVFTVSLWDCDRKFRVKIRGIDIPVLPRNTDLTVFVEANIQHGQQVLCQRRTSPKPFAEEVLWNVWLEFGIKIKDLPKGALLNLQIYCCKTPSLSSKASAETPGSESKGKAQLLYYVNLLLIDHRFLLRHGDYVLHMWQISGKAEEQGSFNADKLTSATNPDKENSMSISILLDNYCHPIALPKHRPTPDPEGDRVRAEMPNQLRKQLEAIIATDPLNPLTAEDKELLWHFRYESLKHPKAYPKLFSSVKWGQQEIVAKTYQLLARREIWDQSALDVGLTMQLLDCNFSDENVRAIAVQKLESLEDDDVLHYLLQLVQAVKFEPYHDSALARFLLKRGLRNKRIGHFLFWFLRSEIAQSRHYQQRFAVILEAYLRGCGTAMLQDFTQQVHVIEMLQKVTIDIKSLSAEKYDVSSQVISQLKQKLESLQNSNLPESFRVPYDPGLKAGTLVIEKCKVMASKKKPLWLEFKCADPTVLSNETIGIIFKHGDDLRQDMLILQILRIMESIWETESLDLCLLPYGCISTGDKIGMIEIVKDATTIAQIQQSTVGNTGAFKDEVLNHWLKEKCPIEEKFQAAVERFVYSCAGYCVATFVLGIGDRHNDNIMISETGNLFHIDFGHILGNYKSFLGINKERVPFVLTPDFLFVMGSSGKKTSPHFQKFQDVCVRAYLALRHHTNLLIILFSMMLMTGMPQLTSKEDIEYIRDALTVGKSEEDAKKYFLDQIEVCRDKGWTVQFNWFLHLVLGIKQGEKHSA
# assay_summary: Raw264.7 p110 γ cellular assay (phospho-AKT)
# settings: serum-starved RAW264.7 cells stimulated with C5a
pIC50: −log10 of the molar value.
reported_endpoint: pIC50

Recorded pIC50, per entry:
[[record]]
compound_smiles = "COc1ncc(-c2cccc3cc([C@H](C)NC(=O)c4c(N)nn5cccnc45)n(-c4ccccc4)c(=O)c23)cn1"
result_value = "> 7.00"

[[record]]
compound_smiles = "C[C@H](NC(=O)c1c(N)nn2cccnc12)c1cc2cccc(O)c2c(=O)n1-c1ccccc1"
result_value = "> 7.00"

[[record]]
compound_smiles = "C[C@H](NC(=O)c1c(N)nn2cccnc12)c1cc2cccc(C#CCNC(=O)c3ccc(C#N)o3)c2c(=O)n1-c1ccccc1"
result_value = "> 7.00"

[[record]]
compound_smiles = "C[C@H](NC(=O)c1cccnc1N)c1cc2cccc(Cl)c2c(=O)n1-c1ccccc1"
result_value = "5.00 to 6.00"


// pIC50 (Raw264.7 p110 γ (Mus musculus, UniProt Q9JHG7)) for CNS(=O)(=O)c1cccc(-c2cnc(N)c(C(=O)N[C@@H](C)c3cc4cccc(Cl)c4c(=O)n3-c3ccccc3)n2)c1 = > 7.00

// pIC50 (Raw264.7 p110 γ (Mus musculus, UniProt Q9JHG7)) for C[C@H](NC(=O)c1c(N)nn2cccnc12)c1cc2cccc(N(C)C)c2c(=O)n1-c1ccccc1 = 6.00 to 7.00

* * *

Observed IC50 values for PI3K γ (Homo sapiens, UniProt P48736) are listed in what follows.

[[record]]
compound_smiles = "C[C@H](NC(=O)c1nc(-c2cccc(S(C)(=O)=O)c2)cnc1N)c1cc2cccc(Cl)c2c(=O)n1-c1ccccc1"
result_value = "100 to 1000 nM"

[[record]]
compound_smiles = "C[C@H](NC(=O)c1nc(-c2cccc(NS(C)(=O)=O)c2)cnc1N)c1cc2cccc(Cl)c2c(=O)n1C"
result_value = "< 100 nM"

[[record]]
compound_smiles = "CC(=O)Nc1ccc(-c2cccc3cc([C@H](C)NC(=O)c4c(N)nn5cccnc45)n(-c4ccccc4)c(=O)c23)cc1"
result_value = "100 to 1000 nM"


// IC50 (PI3K γ (Homo sapiens, UniProt P48736)) for C[C@H](NC(=O)c1c(N)nn2cccnc12)c1cc2cccc(Cl)c2c(=O)n1C = 100 to 1000 nM

// IC50 (PI3K γ (Homo sapiens, UniProt P48736)) for Cc1ccn2ncc(C(=O)N[C@@H](C)c3cc4cccc(Cl)c4c(=O)n3-c3ccccc3)c2n1 = 1000 to 10000 nM

// IC50 (PI3K γ (Homo sapiens, UniProt P48736)) for C[C@H](NC(=O)c1nc(-c2cccc(NS(C)(=O)=O)c2)cnc1N)c1cc2cccc(N3CCOCC3)c2c(=O)n1-c1ccccc1 = 1000 to 10000 nM

// IC50 (PI3K γ (Homo sapiens, UniProt P48736)) for C[C@H](NC(=O)c1cnn2cccnc12)c1cc2cccc(Cl)c2c(=O)n1-c1ccccc1 = 1000 to 10000 nM

// IC50 (PI3K γ (Homo sapiens, UniProt P48736)) for CC(C)Oc1ccc(-c2cnc(N)c(C(=O)N[C@@H](C)c3cc4cccc(Cl)c4c(=O)n3-c3ccccc3)n2)cc1F = 100 to 1000 nM

// IC50 (PI3K γ (Homo sapiens, UniProt P48736)) for Cc1cc(C)n2nc(N)c(C(=O)N[C@@H](C)c3cc4cccc(Cl)c4c(=O)n3-c3ccccc3)c2n1 = 100 to 1000 nM

// IC50 (PI3K γ (Homo sapiens, UniProt P48736)) for C[C@H](NC(=O)c1nccnc1N)c1cc2cccc(Cl)c2c(=O)n1-c1ccccc1 = 100 to 1000 nM

// IC50 (PI3K γ (Homo sapiens, UniProt P48736)) for CC(=O)Nc1cccc(-c2cccc3cc([C@H](C)NC(=O)c4c(N)nn5cccnc45)n(-c4ccccc4)c(=O)c23)c1 = 100 to 1000 nM

// IC50 (PI3K γ (Homo sapiens, UniProt P48736)) for C[C@H](NC(=O)c1c(N)nn2cccnc12)c1cc2cccc(-c3cncs3)c2c(=O)n1-c1ccccc1 = 100 to 1000 nM

// IC50 (PI3K γ (Homo sapiens, UniProt P48736)) for C[C@H](NC(=O)c1nccnc1N)c1cc2cccc(-c3cnn(C)c3)c2c(=O)n1-c1ccccc1 = 100 to 1000 nM

// IC50 (PI3K γ (Homo sapiens, UniProt P48736)) for C[C@H](NC(=O)c1c(N)nn2cccnc12)c1cc2cccc(CO)c2c(=O)n1-c1ccccc1 = 100 to 1000 nM

// IC50 (PI3K γ (Homo sapiens, UniProt P48736)) for C[C@H](NC(=O)c1nc(-c2cccc(NS(C)(=O)=O)c2)cnc1N)c1cc2cccc(Cl)c2c(=O)n1C1CC1 = < 100 nM

// IC50 (PI3K γ (Homo sapiens, UniProt P48736)) for C[C@H](NC(=O)c1c(N)nn2cccnc12)c1cc2scc(Cl)c2c(=O)n1-c1ccccc1 = < 100 nM

// IC50 (PI3K γ (Homo sapiens, UniProt P48736)) for COc1cc(-c2cccc3cc([C@H](C)NC(=O)c4c(N)nn5ccc(C)nc45)n(-c4ccccc4)c(=O)c23)ccn1 = 100 to 1000 nM

// IC50 (PI3K γ (Homo sapiens, UniProt P48736)) for C[C@H](NC(=O)c1nc(-c2cscn2)cnc1N)c1cc2cccc(Cl)c2c(=O)n1-c1ccccc1 = 100 to 1000 nM

// IC50 (PI3K γ (Homo sapiens, UniProt P48736)) for C[C@H](NC(=O)c1c(N)nn2cccnc12)c1cc2cccc(-c3ccc(=O)n(C)c3)c2c(=O)n1-c1ccccc1 = < 100 nM
